System: 229E
Test: Cell-based screening, 229E in MRC-5 cells (Example 2)
Settings: Human coronavirus 229E, MRC5, read-out: Inhibition [ED50 (μM)] against various viruses: Coronavirus, 229E
value-type: EC50 (µM)
Give the quantity in µM, number only.

Recorded EC50 of CC(C)C[C@H](NC(=O)OCc1ccccc1)C(=O)N[C@@H](CC1CCNC1=O)C(=O)C(=O)NC(C)C (stereo partly shown) , please.
0.15

----------
The following molecules are shown together with reported IC50 values.
Target: PV 3Cpro (codon-optimized, N-terminal 6 His, recombinant) (Poliovirus type 1, UniProt P03300)
Sequence (P03300 1566-1748 limits assumed): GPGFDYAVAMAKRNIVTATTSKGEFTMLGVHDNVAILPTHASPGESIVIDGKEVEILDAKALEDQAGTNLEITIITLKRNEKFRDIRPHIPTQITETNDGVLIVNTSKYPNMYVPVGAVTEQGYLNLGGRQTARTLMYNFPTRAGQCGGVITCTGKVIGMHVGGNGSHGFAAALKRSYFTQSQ
Assay: biochemical
Give the quantity in nM, number only.

Sample records with IC50:
molecule	IC50, nM
CC(C)C[C@H](NC(=O)OCc1ccccc1)C(=O)N[C@@H](CC1CCNC1=O)C(O)S(=O)(=O)O (stereo partly drawn) [GC376]	1770
CCOC(=O)/C=C/[C@H](C[C@@H]1CCNC1=O)NC(=O)[C@@H](CC(=O)[C@@H](NC(=O)c1cc(C)on1)C(C)C)Cc1ccc(F)cc1 [Rupintrivir, reference compound]	1830

Please look at the following molecule next.
Recorded IC50 of CC(C)C[C@H](NC(=O)OCc1ccccc1)C(=O)N[C@H](C=O)C[C@@H]1CCNC1=O [GC373] , please.
2020

----------
The following compounds are shown together with reported pIC50 values.
Molecular target: MD145 3CLpro (codon-optimized, full-length, N-terminal 6 His, recombinant) (Lordsdale virus, UniProt P54634)
Sequence (P54634 1009-1189): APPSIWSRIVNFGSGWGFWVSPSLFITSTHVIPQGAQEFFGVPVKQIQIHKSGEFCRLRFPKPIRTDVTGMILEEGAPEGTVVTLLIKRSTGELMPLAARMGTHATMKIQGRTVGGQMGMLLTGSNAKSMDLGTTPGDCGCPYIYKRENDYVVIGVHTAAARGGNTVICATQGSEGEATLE
Assay: biochemical
Parameters: species or system norovirus strain MD145 (human norovirus GII)
Field pIC50 (float): negative decimal logarithm of the concentration in molar.

compound	pIC50
CC(C)C[C@H](NC(=O)OCc1ccccc1)C(=O)N[C@H](C=O)C[C@@H]1CCNC1=O	5.93
CC(C)C[C@H](NC(=O)OCc1ccccc1)C(=O)N[C@@H](CC1CCNC1=O)C(=O)C(=O)NC(C)C (stereo partly drawn)	5.39

Please look at the following compound next.
Recorded pIC50 of CC(C)C[C@H](NC(=O)OCc1ccccc1)C(=O)N[C@@H](CC1CCNC1=O)C(O)S(=O)(=O)O (stereo partly drawn) , please.
6.02

----------
Target: TGEV 3CL protease (Porcine transmissible gastroenteritis coronavirus)
Sequence (P0C6Y5 2879-3180): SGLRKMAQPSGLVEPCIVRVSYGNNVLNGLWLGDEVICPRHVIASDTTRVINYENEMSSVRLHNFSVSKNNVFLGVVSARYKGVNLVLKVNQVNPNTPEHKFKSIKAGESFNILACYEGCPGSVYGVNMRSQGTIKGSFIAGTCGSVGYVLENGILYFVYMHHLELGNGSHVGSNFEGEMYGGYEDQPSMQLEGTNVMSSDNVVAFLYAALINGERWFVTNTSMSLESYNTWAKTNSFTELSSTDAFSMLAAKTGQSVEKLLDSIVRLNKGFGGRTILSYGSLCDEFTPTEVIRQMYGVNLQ
Test: FRET-based protease assay, TGEV 3CL protease (Example 5)
Details: TGEV 3CL protease; read-out: IC50 against 3CL protease in the FRET assay
value-type: pIC50
Field pIC50 (float): negative decimal logarithm of the concentration in molar.

compound	pIC50
CC(C)C[C@H](NC(=O)OCc1ccccc1)C(=O)N[C@@H](CC1CCNC1=O)C(O)S(=O)(=O)O (some centres unmarked)	6.09

Recorded pIC50 of CC(C)C[C@H](NC(=O)OCc1ccccc1)C(=O)N[C@H](C=O)C[C@@H]1CCNC1=O , please.
6.01

----------
Molecular target: SARS-CoV 3CLpro (codon-optimized, N-terminal 6 His, recombinant) (Severe acute respiratory syndrome coronavirus)
Assay: biochemical
value-type: pIC50
Field pIC50 (float): negative decimal logarithm of the concentration in molar.

compound	value-type	measured-value
CC(C)C[C@H](NC(=O)OCc1ccccc1)C(=O)N[C@H](C=O)C[C@@H]1CCNC1=O	pIC50	5.46

Please look at the following compound next.
Recorded pIC50 of CC(C)C[C@H](NC(=O)OCc1ccccc1)C(=O)N[C@@H](CC1CCNC1=O)C(=O)C(=O)NC(C)C (some centres unmarked) , please.
5.33

Taken from patent US9474759B2.
